# target.or.test.system: Cys12 of the KRAS 4B G12C protein (Homo sapiens, UniProt P01116, G12C)
# Construct: This protein contained 188 amino acids in total, including an N-terminal 6-Histidine tag; made in house; host or cells: E. coli BL21
# protocol.description: In vitro covalent adduct formation (CAF) assay, LC-MS intact mass
# Type: binding
# settings: 10 uM compound, 60 min
Note that class boundaries on % CAF 10 uM @ 60 min are lower segment = under 70%, middle segment = from 70% up to 90%, upper segment = 90% and over

Answered examples (8):
# compound, target.or.test.system, category
data = [
    ("C=CC(=O)N1[C@H](C)CN(c2nc(=O)n3c4c(c(-c5nc(N)ccc5I)c(C(F)(F)F)cc24)SC[C@@H]3COC)C[C@@H]1C", "Cys12 of the KRAS 4B G12C protein (Homo sapiens, UniProt P01116, G12C)", "upper segment"),
    ("C=CC(=O)N1[C@H](C)CN(c2nc(=O)n3c4c(c(-c5ccc(F)cc5)c(C(F)(F)F)cc24)SC[C@@H]3CN2CCN(CC)CC2)C[C@@H]1C", "Cys12 of the KRAS 4B G12C protein (Homo sapiens, UniProt P01116, G12C)", "upper segment"),
    ("C=CC(=O)N1CCN(c2nc(=O)n3c4c(c(-c5cc(Cl)c(F)cc5F)c(C(F)(F)F)cc24)SC[C@@H]3CN2C[C@@H]3C[C@H]2CO3)CC1 (atropisomer, axis not shown) [Example 1341]", "Cys12 of the KRAS 4B G12C protein (Homo sapiens, UniProt P01116, G12C)", "upper segment"),
    ("C=CC(=O)N1[C@H](C)CN(c2nc(=O)n3c4c(c(-c5cc(Cl)c(F)cc5F)c(C(F)(F)F)cc24)SCC(CO)(CO)C3)C[C@@H]1C", "Cys12 of the KRAS 4B G12C protein (Homo sapiens, UniProt P01116, G12C)", "middle segment"),
    ("C=CC(=O)N1CCN(c2nc(=O)n3c4c(c(-c5cc(Cl)c(F)cc5F)c(C(F)(F)F)cc24)SC[C@@H]3CN2CCN(CC)CC2)CC1 (atropisomer, axis not shown) [Example 1337]", "Cys12 of the KRAS 4B G12C protein (Homo sapiens, UniProt P01116, G12C)", "upper segment"),
    ("C=CC(=O)N1[C@H](C)CN(c2nc(=O)n3c4c(c(-c5ccc(F)c(Cl)c5)c(C(F)(F)F)cc24)SC[C@@H]3CN2CCN(C3CC3)CC2)C[C@@H]1C", "Cys12 of the KRAS 4B G12C protein (Homo sapiens, UniProt P01116, G12C)", "middle segment"),
    ("C=CC(=O)N1[C@H](C)CN(c2nc(=O)n3c4c(c(-c5cc(Cl)c(F)cc5F)c(C(F)(F)F)cc24)SC[C@@H]3COCOC)C[C@@H]1C (atropisomer, axis not shown) [Example 1369]", "Cys12 of the KRAS 4B G12C protein (Homo sapiens, UniProt P01116, G12C)", "lower segment"),
    ("C=CC(=O)N1CC2COCC(C1)N2c1nc(=O)n2c3c(c(-c4ccc(F)cc4)c(C(F)(F)F)cc13)SC[C@@H]2COC", "Cys12 of the KRAS 4B G12C protein (Homo sapiens, UniProt P01116, G12C)", "lower segment"),
]

# classify by % CAF 10 uM @ 60 min band: C=CC(=O)N1CCN(c2nc(=O)n3c4c(c(-c5ccc(F)cc5)c(C(F)(F)F)cc24)SC[C@@H]3CN2C[C@@H]3C[C@H]2CO3)CC1
middle segment

Queued: C=CC(=O)N1C[C@H](C)N(c2nc(=O)n3c4c(c(-c5cc(Cl)c(F)cc5F)c(C(F)(F)F)cc24)SC[C@@H]3CN2CCC3(CC2)COC3)C[C@H]1C (atropisomer, axis not shown) [Example 1313]
upper segment

Moving on to the next compound: C=CC(=O)N1[C@H](C)CN(c2nc(=O)n3c4c(c(-c5cc(Cl)c(F)cc5F)c(C(F)(F)F)cc24)SC[C@@H]3CN2CC[C@H](F)C2)C[C@@H]1C (atropisomer, axis not shown) [Example 1438]
lower segment

Also C=CC(=O)N1[C@H](C)CN(c2nc(=O)n3c4c(c(-c5cc(Cl)c(F)cc5F)c(C(F)(F)F)cc24)SC[C@@H]3CN2C[C@@H]3C[C@H]2CO3)C[C@@H]1C (atropisomer, axis not shown) [Example 1331] ?
upper segment

Again, but for C=CC(=O)N1[C@H](C)CN(c2nc(=O)n3c4c(c(-c5ccc(F)cc5F)c(C(F)(F)F)cc24)SC[C@@H]3CN(C)C)C[C@@H]1C (atropisomer, axis not shown) [Example 1325]
middle segment

Quick one: C=CC(=O)N1C2CCC1CN(c1nc(=O)n3c4c(c(-c5cc(Cl)c(F)cc5F)c(C(F)(F)F)cc14)SCC1(COC1)C3)C2 [Example 1401]
middle segment

Moving on to the next compound: C=CC(=O)N1[C@@H]2CC[C@H]1CN(c1nc(=O)n3c4c(c(-c5cc(Cl)c(F)cc5F)c(Cl)cc14)SC[C@@H]3CN1CCN(CC)CC1)C2
lower segment

Further, for C=CC(=O)N1CCN(c2nc(=O)n3c4c(c(-c5ccc(F)cc5F)c(C(F)(F)F)cc24)SC[C@@H]3CN2C[C@@H]3C[C@H]2CO3)CC1 (atropisomer, axis not shown) [Example 1306] ?
upper segment

Consider next the compound C=CC(=O)N1[C@H](C)CN(c2nc(=O)n3c4c(c(-c5ccc(F)cc5F)c(C(F)(F)F)cc24)SC[C@@H]3CN2CCN(CC)CC2)C[C@@H]1C (atropisomer, axis not shown) [Example 1330] in the same way.
middle segment

Now consider C=CC(=O)N1C2CCC1CN(c1nc(=O)n3c4c(c(-c5cc(Cl)c(F)cc5F)c(C(F)(F)F)cc14)SC[C@@H]3COC)C2 [Example 1395] and answer again.
lower segment
